All figures here come from paper doi:10.1101/2025.06.19.660642.

assay: Microsomal clearance, HLM; details: human, microsomes
OUTCOME_MEASURE: microsomal CLint

COMPOUND_STRUCTURE_STRING | microsomal CLint
O=C(Nc1ccc2c(c1)CNC2)c1cc(Cl)cc2[nH]ncc12 | < 10 µL/min/mg

## Task If you can, please state the reported microsomal CLint value of Cc1cc([C@H](Nc2ccc3c(c2)CNC3)C(=O)NCC(F)F)cc(C(F)(F)F)c1 .
## Result < 10 µL/min/mg

###

assay: Murine in vivo pharmacokinetics and tolerability; design: species or system mice; conditions: in vivo, 300 mg/kg; mouse, PO 300 mpk; read-out: %F
OUTCOME_MEASURE: bioavailability
Please state the value followed by its unit.

## Task For the compound Cc1cc([C@H](Nc2ccc3c(c2)CNC3)C(=O)NCC(F)F)cc(C(F)(F)F)c1 [ASAP-0036543] , what bioavailability is on record?
## Result 153%

###

Assay system WNV NS2B-NS3 protease (West Nile virus, UniProt P06935); read-out recorded as Ki.
Quick reminder: number only, in µM, skip the unit.

Past entries and their recorded results:
MOLECULE | Ki (µM)
CC(C)NC(=O)[C@@H](Nc1ccc2c(c1)CNC2)c1cc(Cl)cc2[nH]ncc12 [ASAP-0029000] | 0.32
Cc1cc([C@H](Nc2ccc3c(c2)CNC3)C(=O)NCC(F)F)cc(C(F)(F)F)c1 [ASAP-0036543] | 0.058
Clc1cc(CNc2ccc3c(c2)CNC3)c2cn[nH]c2c1 [ASAP-0029525] | 43

We next turn to a different molecule, shown below.
## Task Using the record for CC(C)NC(=O)[C@@H](Nc1ccc2c(c1)CN(C)C2)c1cc(Cl)cc2[nH]ncc12 [ASAP-0031156] , report its Ki.
## Result 1.6

###

// reported Papp B→A for each item listed
assay: MDR1-MDCK permeability; assay type: in vitro ADME; details: dog, MDCK-MDR1, B→A

Some compounds with known Papp B→A results, for comparison:
COMPOUND | Papp B→A
Cc1cc([C@H](Nc2ccc3c(c2)CNC3)C(=O)NCC(F)F)cc(C(F)(F)F)c1 [ASAP-0036543] | 16 ×10⁻⁶ cm/s
O=C(Nc1ccc2c(c1)CNC2)c1cc(Cl)cc2[nH]ncc12 [ASAP-0027808] | 11 ×10⁻⁶ cm/s

## Task Looking for the measured Papp B→A of CC(C)NC(=O)[C@@H](Nc1ccc2c(c1)CNC2)c1cc(Cl)cc2[nH]ncc12 [ASAP-0029000] , can you help?
## Result 2.2 ×10⁻⁶ cm/s

###

test: Kinetic solubility; details: pH 7.4
OUTCOME_MEASURE: solubility kinetic (µM)
# number only, unit µM dropped from output

## Task Which measured solubility kinetic value corresponds to Cc1cc([C@H](Nc2ccc3c(c2)CNC3)C(=O)NCC(F)F)cc(C(F)(F)F)c1 ?
## Result 389

###

assay: Microsomal clearance, MLM; details: mouse, microsomes
OUTCOME_MEASURE: microsomal CLint

## Task Quick one: microsomal CLint of Cc1cc([C@H](Nc2ccc3c(c2)CNC3)C(=O)NCC(F)F)cc(C(F)(F)F)c1 ?
## Result < 10 µL/min/mg

###

assay: Murine in vivo pharmacokinetics and tolerability; set-up: species or system mice; conditions: mouse, in vivo; read-out: Vd,ss
OUTCOME_MEASURE: Vd (L/kg)
Write the number in L/kg without appending the unit.

## Task Look up Vd for this compound: Cc1cc([C@H](Nc2ccc3c(c2)CNC3)C(=O)NCC(F)F)cc(C(F)(F)F)c1
## Result 7.9
